Recorded pEC50 values (Sodium-dependent phosphate transport protein 2A (Homo sapiens, UniProt Q06495)) are given below.
pEC50: −log10 of the molar value.

>  <compound>
O=P([O-])([O-])O.[Na+].[Na+] [SODIUM PHOSPHATE, DIBASIC, ANHYDROUS]

>  <study-system>
Sodium-dependent phosphate transport protein 2A (Homo sapiens, UniProt Q06495)
Sequence (Q06495 whole entry): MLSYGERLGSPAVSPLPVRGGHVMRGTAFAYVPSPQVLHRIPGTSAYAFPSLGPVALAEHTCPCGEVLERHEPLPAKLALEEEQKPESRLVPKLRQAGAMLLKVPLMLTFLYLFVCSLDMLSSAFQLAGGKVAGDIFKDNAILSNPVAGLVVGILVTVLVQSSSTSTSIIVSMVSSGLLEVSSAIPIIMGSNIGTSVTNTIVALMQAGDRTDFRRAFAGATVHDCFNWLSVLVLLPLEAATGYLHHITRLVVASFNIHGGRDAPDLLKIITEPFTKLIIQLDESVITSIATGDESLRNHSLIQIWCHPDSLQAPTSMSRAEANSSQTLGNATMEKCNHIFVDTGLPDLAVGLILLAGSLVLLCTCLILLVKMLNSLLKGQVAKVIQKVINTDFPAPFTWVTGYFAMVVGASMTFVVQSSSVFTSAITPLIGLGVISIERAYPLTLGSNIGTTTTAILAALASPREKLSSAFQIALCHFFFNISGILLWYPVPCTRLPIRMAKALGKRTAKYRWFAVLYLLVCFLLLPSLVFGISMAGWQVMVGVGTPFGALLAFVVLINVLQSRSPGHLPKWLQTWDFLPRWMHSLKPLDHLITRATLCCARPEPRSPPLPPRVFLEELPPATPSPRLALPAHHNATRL

>  <pEC50>
4.49

$$$$
>  <compound>
O=P([O-])(O)O.[K+] [POTASSIUM PHOSPHATE, MONOBASIC]

>  <study-system>
Sodium-dependent phosphate transport protein 2A (Homo sapiens, UniProt Q06495)

>  <pEC50>
4.41

$$$$
